Molecular target: T1, Human syndecan-1 (CD138) on the cell surface (human, UniProt P18827 23-310)
T1 construct: Endogenous on H929, KMS-11 and RT112/84 cells or transfected into Expi293 cells; also called human CD138; hCD138
T1 sequence: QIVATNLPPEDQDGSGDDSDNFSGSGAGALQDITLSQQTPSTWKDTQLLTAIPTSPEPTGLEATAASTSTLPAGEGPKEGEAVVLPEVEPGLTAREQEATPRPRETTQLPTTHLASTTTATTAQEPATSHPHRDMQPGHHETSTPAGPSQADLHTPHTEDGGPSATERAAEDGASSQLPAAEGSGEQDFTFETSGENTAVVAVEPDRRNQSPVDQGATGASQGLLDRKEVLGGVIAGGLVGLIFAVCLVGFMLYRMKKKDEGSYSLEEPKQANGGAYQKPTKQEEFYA
Experiment: FACS on KMS-11 cells, four parameter fit
measurement_kind: pEC50
Entry type: numeric. Quantity: pEC50, the -log10 of concentration in molar units.

| binder | measurement_kind | assay_value |
| --- | --- | --- |
| F6 akf-rep (antibody, V domains shown, Humanized F12P16F6 expressed as whole antibody with human constant regions (kappa light chain)) VH: QVQLVQSGAEVVKPGASVKLSCKASGYTFTSYYLYWVKKAPGQGLDWIGEIYPRSGGTNYAEKFQGRVTLTADTSTSTAYLELSSLTSEDTAVYYCTRSLLYWGQGTTLTVSS VL: DVVMTQSPLSLSVTLGQPASISCKSSQSLLASDGKTYLNWLQQRPGQSPRRLIYLVSKLDSGVPNRFSGSGSGTDFTLQISRVEAEDVGLYYCWQGAHFPFTFGSGTKLEIKR | pEC50 | 8.96 |
| F6 cks-rep (hF6) (antibody, human IgG1, kappa, V domains shown, Humanized IgG1/kappa antibody; also called hF6 (no Fynomer)) VH: QVQLVQSGAEVVKPGASVKLSCKASGYTFTSYYLYWVKKAPGQGLDWIGEIYPRSGGTNINEKFLSRVTLTADTSTSTAYLELSSLTSEDTAVYYCTRSLLYWGQGTTLTVSS VL: DVVMTQTPLSLSVTPGQPASISCKSSQSLLASDGKTYLNWLLQRPGQSPKRLIYLVSKLDSGVPNRFSGSGSGTDFTLQISRVEAEDVGLYYCWQGAHFPFTFGSGTKLEIKR | pEC50 | 8.92 |
| F6 ckf-rep (antibody, V domains shown, Humanized F12P16F6 expressed as whole antibody with human constant regions (kappa light chain)) VH: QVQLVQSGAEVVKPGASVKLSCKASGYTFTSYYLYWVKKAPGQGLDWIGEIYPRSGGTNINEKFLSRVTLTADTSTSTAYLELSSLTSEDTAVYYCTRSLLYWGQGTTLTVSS VL: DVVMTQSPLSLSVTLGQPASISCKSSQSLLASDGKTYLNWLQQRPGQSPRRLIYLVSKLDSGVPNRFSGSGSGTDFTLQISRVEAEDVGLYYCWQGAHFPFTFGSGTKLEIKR | pEC50 | 8.79 |

Continue with the binder presented below.
Give its pEC50 value. Item: F6 aks-rep (antibody, V domains shown, Humanized F12P16F6 expressed as whole antibody with human constant regions (kappa light chain)) VH: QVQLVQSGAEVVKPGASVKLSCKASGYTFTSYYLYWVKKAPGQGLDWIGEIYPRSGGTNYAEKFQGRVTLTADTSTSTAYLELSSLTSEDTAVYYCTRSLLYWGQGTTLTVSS VL: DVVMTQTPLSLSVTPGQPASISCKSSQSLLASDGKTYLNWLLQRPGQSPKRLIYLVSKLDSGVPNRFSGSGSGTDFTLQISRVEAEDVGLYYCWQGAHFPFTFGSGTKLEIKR
8.87
